Attribution: patent US20250074980A1

# systemUnderTest: T1, His-tagged CEACAM1 (human, UniProt P13688 35-428)
# T1 construct: 45 kDa SPR analyte; also called CEACAM1-HIS; CEACAM1 analyte
# T1 sequence: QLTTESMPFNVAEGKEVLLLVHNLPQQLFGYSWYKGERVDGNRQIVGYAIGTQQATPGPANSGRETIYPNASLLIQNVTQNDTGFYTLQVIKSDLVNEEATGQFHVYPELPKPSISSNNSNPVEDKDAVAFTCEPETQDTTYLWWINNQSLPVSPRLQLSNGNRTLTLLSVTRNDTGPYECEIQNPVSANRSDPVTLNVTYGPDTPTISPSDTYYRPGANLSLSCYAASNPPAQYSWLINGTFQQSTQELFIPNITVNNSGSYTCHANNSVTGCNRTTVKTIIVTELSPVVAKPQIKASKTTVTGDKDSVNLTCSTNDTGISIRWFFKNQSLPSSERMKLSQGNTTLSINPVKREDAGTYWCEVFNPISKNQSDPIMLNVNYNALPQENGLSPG
# testProtocol: SPR single-cycle, supernatant IgG captured
Reported kon is given for each of the following binders.

binder	unitsOfMeasure	kon
VH1/CP08F05 (antibody, IgG4, V domains shown, IgG4 (S241P), kappa; also called Parent VH/CP08F05) VH: EVQLLESGGGLVQPGGSLRLSCAASGFIFSSHGMSWVRQAPGKGLEWVATISSGGTYTYYPDSVKGRFTISRDNSKNTLYLQMNSLKAEDTAMYYCARHDFDYDAAWFAYWGQGTLVTVSS VL: EIVLTQSPATLSLSPGERATLSCRANSAVSYMYWYQQKPGQAPRPWIYLTSNRATGVPARFSGSGSGTDYTLTISSLEPEDFAVYYCQQWTSNPPTFGQGTKLEIK	M⁻¹ s⁻¹	100000
CP08H03/Vκ8 S29A (antibody, IgG4, V domains shown, IgG4 (S241P), kappa; also called CP08_H03/Parent VL; CP08_H03/Parental) VH: EVQLLESGGGLVQPGGSLRLSCAASGFIFSSHGMSWVRQAPGKGLEWVATISSGGTYTYYPDSVKGRFTISRDNSKNTLYLQMNSLKAEDTAMYYCARHDFDYFPYWFAHWGQGTLVTVSS VL: EIVLTQSPATLSLSPGERATLSCRANSAVSYMYWYQQKPGQAPRPWIYLTSNRATGVPARFSGSGSGTDYTLTISSLEPEDFAVYYCQQWSSNPPTFGQGTKLEIK	M⁻¹ s⁻¹	65000
CP09C02/CP08E05 (antibody, IgG4, V domains shown, IgG4 (S241P), kappa) VH: EVQLLESGGGLVQPGGSLRLSCAASEFTFSDHAMSWVRQAPGKGLEWVATISSGGTYTYYPDSVKGRFTISRDNSKNTLYLQMNSLKAEDTAMYYCARHGFDYDAAWFAYWGQGTLVTVSS VL: EIVLTQSPATLSLSPGERATLSCRANSAVSYMYWYQQKPGQAPRPWIYLTSNRATGVPARFSGSGSGTDYTLTISSLEPEDFAVYYCQQWTTNPPTFGQGTKLEIK	M⁻¹ s⁻¹	96000
CP09B03/CP08E05 (antibody, IgG4, V domains shown, IgG4 (S241P), kappa) VH: EVQLLESGGGLVQPGGSLRLSCAASGFTFNAHAISWVRQAPGKGLEWVATISSGGTYTYYPDSVKGRFTISRDNSKNTLYLQMNSLKAEDTAMYYCARHDFDYDAAWFAYWGQGTLVTVSS VL: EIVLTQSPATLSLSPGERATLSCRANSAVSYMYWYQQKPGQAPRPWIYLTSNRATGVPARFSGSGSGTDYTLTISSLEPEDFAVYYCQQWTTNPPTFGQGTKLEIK	M⁻¹ s⁻¹	110000
